- experimental.target: UniProt:P45568
- test.method.notes: Inhibition of Escherichia coli DXR assessed as inhibition constant pre-incubated for 2 mins in presence of NADPH by spectrophotometric assay
Reported IC50 by item:
observation.type: IC50

- O=C(CCCP(=O)(O)O)NO: 170 nM
- CN(O)C(=O)CCCP(=O)(O)O: 48 nM

* * *

- experimental.target: 1-deoxy-D-xylulose 5-phosphate reductoisomerase (Escherichia coli K-12)
- Sequence (P45568 whole entry): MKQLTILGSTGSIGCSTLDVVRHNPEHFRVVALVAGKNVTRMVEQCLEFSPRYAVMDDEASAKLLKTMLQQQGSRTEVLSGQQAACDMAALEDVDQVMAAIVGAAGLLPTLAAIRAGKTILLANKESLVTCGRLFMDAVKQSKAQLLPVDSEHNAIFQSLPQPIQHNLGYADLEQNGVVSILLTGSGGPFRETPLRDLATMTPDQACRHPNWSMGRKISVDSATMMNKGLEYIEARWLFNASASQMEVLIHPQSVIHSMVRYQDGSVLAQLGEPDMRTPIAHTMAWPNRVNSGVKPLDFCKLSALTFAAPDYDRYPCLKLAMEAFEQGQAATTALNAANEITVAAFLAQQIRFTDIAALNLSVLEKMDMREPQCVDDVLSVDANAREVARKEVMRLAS
- test.method.notes: Inhibition of recombinant Escherichia coli DXR in presence of NADPH
pIC50: −log10 of the molar value.
observation.type: pIC50

* CN(O)C(=O)CCCC(=O)O | 4.60

Sourced from ChEMBL document CHEMBL5226280
